Quick list: melting temperature per entry.
system: HeLa Kyoto; assay: melting temperature (median over replicates), in situ; higher = more thermally stable; details: cell cycle stage: G1/S
# number then unit; no other words

[[record]]
sequencetext = "MASLLAKDAYLQSLAKKICSHSAPEQQARTRAGKTQGSETAGPPKKKRKKTQKKFRKREEKAAEHKAKSLGEKSPAASGARRPEAAKEEAAWASSSAGNPADGLATEPESVFALDVLRQRLHEKIQEARGQGSAKELSPAALEKRRRRKQERDRKKRKRKELRAKEKARKAEEATEAQEVVEATPEGACTEPREPPGLIFNKVEVSEDEPASKAQRRKEKRQRVKGNLTPLTGRNYRQLLERLQARQSRLDELRGQDEGKAQELEAKMKWTNLLYKAEGVKIRDDERLLQEALKRKEKRRAQRQRRWEKRTAGVVEKMQQRQDRRRQNLRRKKAARAERRLLRARKKGRILPQDLERAGLV [SURF6]"
testedon = "HeLa Kyoto"
valueobserved = "56.5 °C"


We next turn to a different sequence, shown below.
For MAAAAKPNNLSLVVHGPGDLRLENYPIPEPGPNEVLLRMHSVGICGSDVHYWEYGRIGNFIVKKPMVLGHEASGTVEKVGSSVKHLKPGDRVAIEPGAPRENDEFCKMGRYNLSPSIFFCATPPDDGNLCRFYKHNAAFCYKLPDNVTFEEGALIEPLSVGIHACRRGGVTLGHKVLVCGAGPIGMVTLLVAKAMGAAQVVVTDLSATRLSKAKEIGADLVLQISKESPQEIARKVEGQLGCKPEVTIECTGAEASIQAGIYATRSGGNLVLVGLGSEMTTVPLLHAAIREVDIKGVFRYCNTWPVAISMLASKSVNVKPLVTHRFPLEKALEAFETFKKGLGLKIMLKCDPSDQNP [SORD] , write its melting temperature.
58.1 °C

----------
test system: HeLa Kyoto; assay: solubility in G1/S (NP-40 vs SDS abundance) (log2 ratio); higher = more soluble; details: cell cycle stage: G1/S
recordedEndpoint: solubility in G1/S (log2)
API doc: respond with a numeric literal and nothing else, no unit.

Would you please give the reported solubility in G1/S (log2) of MPKKKTGARKKAENRREREKQLRASRSTIDLAKHPCNASMECDKCQRRQKNRAFCYFCNSVQKLPICAQCGKTKCMMKSSDCVIKHAGVYSTGLAMVGAICDFCEAWVCHGRKCLSTHACACPLTDAECVECERGVWDHGGRIFSCSFCHNFLCEDDQFEHQASCQVLEAETFKCVSCNRLGQHSCLRCKACFCDDHTRSKVFKQEKGKQPPCPKCGHETQETKDLSMSTRSLKFGRQTGGEEGDGASGYDAYWKNLSSDKYGDTSYHDEEEDEYEAEDDEEEEDEGRKDSDTESSDLFTNLNLGRTYASGYAHYEEQEN [ZNF330] with HeLa Kyoto?
-0.262

----------
system: HeLa Kyoto; experiment: melting temperature (median over replicates), in situ; higher = more thermally stable; details: cell cycle stage: mitosis
Below, each of the sequences is paired with its reported melting temperature value.
Numeric answer only, unit °C assumed.

[[record]]
sequencetext = "MELIQDTSRPPLEYVKGVPLIKYFAEALGPLQSFQARPDDLLINTYPKSGTTWVSQILDMIYQGGDLEKCNRAPIYVRVPFLEVNDPGEPSGLETLKDTPPPRLIKSHLPLALLPQTLLDQKVKVVYVARNPKDVAVSYYHFHRMEKAHPEPGTWDSFLEKFMAGEVSYGSWYQHVQEWWELSRTHPVLYLFYEDMKENPKREIQKILEFVGRSLPEETMDFMVQHTSFKEMKKNPMTNYTTVPQELMDHSISPFMRKGMAGDWKTTFTVAQNERFDADYAEKMAGCSLSFRSEL [SULT1A3]"
valueobserved = 49.2


Continue with the sequence presented below.
// output melting temperature; input MAEISDLDRQIEQLRRCELIKESEVKALCAKAREILVEESNVQRVDSPVTVCGDIHGQFYDLKELFRVGGDVPETNYLFMGDFVDRGFYSVETFLLLLALKVRYPDRITLIRGNHESRQITQVYGFYDECLRKYGSVTVWRYCTEIFDYLSLSAIIDGKIFCVHGGLSPSIQTLDQIRTIDRKQEVPHDGPMCDLLWSDPEDTTGWGVSPRGAGYLFGSDVVAQFNAANDIDMICRAHQLVMEGYKWHFNETVLTVWSAPNYCYRCGNVAAILELDEHLQKDFIIFEAAPQETRGIPSKKPVADYFL [PPP4C] ; system HeLa Kyoto
55.3
